Overview of reported IC50 across a group of molecules:
Molecular target: UniProt:Q13191
Sequence (Q13191 40-426): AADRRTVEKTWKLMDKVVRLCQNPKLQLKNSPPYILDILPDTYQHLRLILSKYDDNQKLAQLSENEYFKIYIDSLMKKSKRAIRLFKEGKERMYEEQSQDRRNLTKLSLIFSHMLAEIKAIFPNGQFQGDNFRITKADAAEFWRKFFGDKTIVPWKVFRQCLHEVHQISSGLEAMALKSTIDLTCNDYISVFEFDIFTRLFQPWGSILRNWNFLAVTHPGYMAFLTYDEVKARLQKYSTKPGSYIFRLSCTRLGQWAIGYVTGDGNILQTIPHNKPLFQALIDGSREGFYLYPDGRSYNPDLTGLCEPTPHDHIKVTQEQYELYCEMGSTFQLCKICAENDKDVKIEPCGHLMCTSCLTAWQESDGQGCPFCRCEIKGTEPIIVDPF
Assay: Cbl-b LCK Ub TR-FRET assay (Cbl-b Lck HTRF)
Type: biochemical
Conditions: Cbl-b LCK Ub TR-FRET, Example 121
Reported Endpoint: IC50 (nM)

Cn1cnnc1[C@@](O)(c1ccccc1)c1cccc(N2Cc3c(Cl)cc(CNC4(C)CCC4)cc3C2=O)c1 (single isomer, unassigned) [Compound 410]; 4500
CO[C@H]1C[C@](c2cccc(N3Cc4c(cc(CNCC5(O)CC5)cc4C(F)(F)F)C3=O)c2)(c2nncn2C)C1 [Compound 473]; 14
CO[C@H]1C[C@](c2cccc(N3Cc4c(cc(CNC5COC5)cc4C(F)(F)F)C3=O)c2)(c2nncn2C)C1 [Compound 476]; 82
CO[C@H]1C[C@](c2cccc(N3Cc4c(cc(CNC5(C)CC(F)(F)C5)cc4C(F)(F)F)C3=O)c2)(c2nncn2C)C1 [Compound 471]; 8.3
